Biological target: SARS-CoV-2 Main Protease (SARS-CoV-2)
Conditions: 20.0 µM
Item-by-item account of inhibition

| compound | inhibition (%) |
| --- | --- |
| NC1=Nc2nc3ccccc3n2C(c2ccc(-c3nc4ccccc4s3)o2)N1 (centres undefined) | -25.2 |
| C=CC(=O)N(c1ccc(N(C)C)c(C)c1)C(C(=O)Nc1ccc(OC)cc1)c1cccnc1 (centres undefined) | 2.56 |
| CCOC(=O)c1ccc(NC(=O)Nc2cn(C)c(=O)c3ccccc23)cc1 | 17.1 |
| O=C(Nc1nncn1C1CC1)[C@@H]1CCOc2ccc(Cl)cc21 (stereo in doubt) | -7.38 |
| C=CC(=O)N1CC(NCc2c[nH]c3ccc(C#N)cc23)C1 | -2.15 |
| NS(=O)(=O)c1ccc(N2CCC(CN3CCCCCC3)CC2)cc1 | -5.53 |
| Cc1[nH]ncc1NC(=O)Cc1cccc(Cl)c1 | 3.64 |
| Cc1nnn(NC(=O)Cc2cccc(Cl)c2)c1C | 39.6 |
| c1ccc(-c2cc(Sc3nnc(-c4cccs4)o3)n3ncnc3n2)cc1 | 47.1 |
| Cc1ccc(Oc2cccc(NC(=O)NCc3cnnn3C)c2)c(C)c1 | -10.7 |
| COc1ncccc1N(C)C(=O)C1CCOc2ccc(Cl)cc21 (centres undefined) | -2.61 |
| O=C(O)[C@@H](Cc1nc(=O)cc[nH]1)NCc1ccc(Cl)s1 (stereo in doubt) | 6.7 |
| COc1cc(Cl)c(C)cc1NC(=O)Nc1cn(CC(C)C)c(=O)c2ccccc12 | 5.7 |
| C=CC(=O)N(c1ccc2ncsc2c1)C(C(=O)NC(C)(C)C)c1cccnc1 (centres undefined) | 9.29 |
| O=C(c1cc(=O)[nH]c2ccccc12)N1CCN(c2ccc(F)cc2)CC1 | 57 |
| C[C@@H]1COCCN1c1cc(C2([S@](C)(=N)=O)CC2)nc(-c2cncc3[nH]ccc23)n1 (stereo in doubt) | -0.821 |
| O=C(N[C@@H](Cc1cc(=O)[nH]c2ccccc12)C(=O)O)c1ccc(Cl)cc1 (stereo in doubt) | 1.24 |
| C=CC(=O)N(c1ccc2ncsc2c1)C(C(=O)Nc1ccc(OC)cc1C)c1cccnc1 (centres undefined) | 3.21 |
| Cc1nnc(NC(=O)Nc2cccnc2)s1 | 1.19 |
| C=CC(=O)N(c1ccc(N(C)C)c(C)c1)C(C(=O)Nc1ccccc1Br)c1cccnc1 (centres undefined) | 2.84 |
| C=CC(=O)N(c1ccc(C(F)(F)F)cc1)C(C(=O)NCCc1cccc(F)c1)c1cncc(C)c1 (centres undefined) | 38.8 |
| CCN(Cc1cccc(-c2ccncc2)c1)C(=O)Cn1nnc2ccccc21 | 3.37 |
| Cc1ccncc1NC(=O)Nc1cccc(C#N)c1 | 19.4 |
| Cc1ccncc1NC(=O)Cc1cncc(Cl)c1 | 28.8 |
| O=S(=O)(Nc1ccccc1SCc1cccc(Cl)c1F)c1cc(Cl)sc1Cl | 90.3 |
| O=C(Nc1nncn1C1CC1)C1CCOc2c(F)cccc21 (centres undefined) | 2.37 |
| COc1ccccc1OCCN(C)C(=O)c1cc(=O)[nH]c2ccc(Cl)cc12 | 0.453 |
| COc1ccccc1OC1CCCN(C(=O)c2c(C)c(=O)[nH]c3ccccc23)C1 (centres undefined) | -2.54 |
| C=CC(=O)N(c1ccc(C(C)C)nc1)C(C(=O)Nc1c(C)cccc1CC)c1cccnc1 (centres undefined) | 5.61 |
| Cc1ccncc1NC(=O)C1(c2cccc(Cl)c2)CC1 | 38.4 |
| O=C(Cn1ccnc1[N+](=O)[O-])NCc1ccccc1 | -7.12 |
| O=C1Nc2cc(N3CCCC3)ccc2C1=O | 7.46 |
| CN(CC1COc2ccccc2O1)C(=O)c1cc(=O)[nH]c2cc(F)ccc12 (centres undefined) | -3.67 |
| C=CC(=O)N1CCCN(Cc2ccccc2)CC1 | 0.947 |
| O=C(NCc1coc2ccccc12)C1CCc2nnc(-c3ccc(O)cc3)n2C1 (centres undefined) | -9.94 |
| O=C(CCl)Nc1cccc(-c2ccc3c(c2)CCCC3)c1 | 10.8 |
| CSc1ccncc1NC(=O)Cc1ccc2c(c1)CCCC2 | -1.16 |
| O=C(C1CCN(S(=O)(=O)c2ccccc2)CC1)N1CCOCC1 | 1.87 |
| O=C(Nc1nncn1C1CC1)[C@H]1CCOc2ccc(Cl)cc21 (stereo in doubt) | -13.3 |
| CC(=O)N1CCN(CC(=O)Nc2cccc(S(N)(=O)=O)c2)CC1 | -3.12 |
| Cc1ccncc1NC(=O)Cn1ccc2ccc(Cl)cc21 | 30.6 |
| N#Cc1ccc(NC(=O)Nc2cccnc2)cc1 | 5.82 |
| Cc1ccc(S(=O)(=O)N2CCC(NC(=O)N(C)Cc3cc(C)on3)CC2)cc1 | -1.1 |
| O=C(Oc1cncc(Cl)c1)c1cccc2[nH]ccc12 | 99.8 |
